system: HeLa (human cancer) cells; assay: Cytological dose-response profiling by automated fluorescence microscopy (KS statistic z-scores, 93 descriptors); format: cell-based; settings: HeLa cells, 20 hrs, thirteen 3-fold dilutions; Y = profile response above signal threshold
Non-standard residues stand in square brackets, D forms with d. Residues, ends and D or L forms follow the SMILES beside them. Nle = CCCC[C@H](N)C(=O)O
readout type: Used in clustering (FIG. 33)

* CCCCCCCCCCCCCC(=O)O[C@@H]1[C@@H](C)[C@@]2(O)[C@@H](C=C(CO)C[C@]3(O)C(=O)C(C)=C[C@@H]23)[C@@H]2C(C)(C)[C@]12OC(C)=O [Compound 43, PMA] | Y
* CCCC[C@@H](C=O)NC(=O)[C@H](CC(C)C)NC(=O)[C@H](CC(C)C)NC(C)=O [Compound 5, N-acetyl-Leu-Leu-norleucinal] (Ac-Leu-Leu-[Nle]-aldehyde) | Y
* COc1cc([C@@H]2c3cc4c(cc3[C@H](O)[C@H]3COC(=O)[C@H]23)OCO4)cc(OC)c1OC [Compound 44, Podophyllotoxin] | Y

---

tested on: HeLa (human cancer) cells; test: Hierarchical clustering of compound profiles by titration-invariant similarity score (TISS); assay type: cell-based; details: unsupervised hierarchical clustering of the 61 responsive compounds
readout type: clustering of compound profile by TISS (FIG. 33)

• CC(C)[C@H](CO)Nc1nc(Nc2cccc(Cl)c2)c2ncn(C(C)C)c2n1 = did cluster
• Cn1cnc2c(NCc3ccccc3)nc(NCCO)nc21 = did cluster

---

tested on: HeLa (human cancer) cells; assay: Cytological dose-response profiling by automated fluorescence microscopy (KS statistic z-scores, 93 descriptors); format: cell-based; details: HeLa cells, 20 hrs, thirteen 3-fold dilutions; Y = profile response above signal threshold
readout type: Used in clustering (FIG. 33)

• O=C(CCCCCN1C(=O)c2cccc3cccc(c23)C1=O)NO = Y
• CCC(C)(C)C(=O)O[C@H]1C[C@@H](C)C=C2C=C[C@H](C)[C@H](CC[C@@H]3C[C@@H](O)CC(=O)O3)[C@H]21 = Y
• Cn1cnc2c(NCc3ccccc3)nc(NCCO)nc21 = Y
• CCOC(=O)C1=C(C)NC(=S)NC1c1cccc(O)c1 (centres unmarked) = Y

Reported HeLa (human cancer) cells Used in clustering (FIG. 33) for item COc1cccc(-c2cc(=O)c3ccccc3o2)c1N was Y

Just for reference, patent US20060154236A1 is where these values come from.
